# experiment: Apparent permeability from apical to basolateral side in MDCK cells at 50 uM over 2 hrs by isocratic reverse phase HPLC method
# Assay type: ADME, cell-based, Canis lupus familiaris
# settings: dog
observation_type: Papp A→B at 2 h, 50 µM (×10⁻⁶ cm/s)
Just the number in ×10⁻⁶ cm/s, nothing appended.

Memo: O=C(/C=C/c1ccccc1)c1ccccc1 , reported Papp A→B at 2 h, 50 µM: 3.84

Note to self: Papp A→B at 2 h, 50 µM recorded for CCOP(=O)(OCC)N1C/C(=C\c2cc(OC)c(OC)c(OC)c2)C(=O)/C(=C/c2cc(OC)c(OC)c(OC)c2)C1 was 105

Lookup result for CN(C)c1ccc(/C=C/C(=O)/C=C/c2ccc(N(C)C)cc2)cc1 ; measured Papp A→B at 2 h, 50 µM: 19.7

Lab note: measured Papp A→B at 2 h, 50 µM of CCOC(=O)c1ccc(/C=C2\CNC/C(=C\c3ccc(C(=O)OCC)cc3)C2=O)cc1 was 2.7

// recorded Papp A→B at 2 h, 50 µM for COc1ccccc1/C=C1\CNC/C(=C\c2ccccc2OC)C1=O : 28.7

Quick note, Papp A→B at 2 h, 50 µM for COc1cccc(/C=C2\CNC/C(=C\c3cccc(OC)c3OC)C2=O)c1OC landed at 14.7

Looking up O=C1/C(=C/c2ccccc2F)CNC/C1=C\c1ccccc1F , I found its Papp A→B at 2 h, 50 µM recorded as 3.54

Papp A→B at 2 h, 50 µM for COc1ccc(/C=C2\CNC/C(=C\c3ccc(OC)c(OC)c3)C2=O)cc1OC is 22.2

# Papp A→B at 2 h, 50 µM (molecule: O=C1/C(=C/c2cccc(O)c2)CNC/C1=C\c1cccc(O)c1 ) is 21.9

Summary for this molecule, CCOP(=O)(OCC)N1C/C(=C\c2ccc(OC)c(OC)c2)C(=O)/C(=C/c2ccc(OC)c(OC)c2)C1 : Papp A→B at 2 h, 50 µM is 62.3
